Taken from patent US6399542B1.

Test system: Psecidoperonospora cubensis
Assay: Effect on Cucumber downy mildew (preventive spray test)
Type: in vivo
Conditions: conc. of active ingredient 100 ppm, 7 days after inoculation
Measure: Preventive rate (%)
API: value field is a number in %; no unit string.

Psecidoperonospora cubensis Preventive rate (%) of CON=C(C(=O)OC)c1ccccc1COc1cc2c(cc1C)C(=NOC)C(C)C2 (single isomer, unassigned) [f-9] is 100

Psecidoperonospora cubensis Preventive rate (%) of CNC(=O)/C(=N/OC)c1ccccc1COc1ccc2c(c1C)OCC2=NOC/C=C/Cl is 100

Psecidoperonospora cubensis Preventive rate (%) of CNC(=O)C(=NOC)c1ccccc1COc1cc2c(cc1C)C(=NOC)C(C)C2 (single isomer, unassigned) is 100

---

Test system: Pseudoperonospora cubenis
Test: Penetration and translocation in cucumber leaf (drop on back of leaf, downy mildew)
Type: in vivo
Set-up: key: 3: At least 40% of the area of the leaf was free from the disease.; 20 to 40% of the area of the leaf was free from the disease.; 1: An area larger than the spot of the drop but smaller than 20% of the area of the leaf was free from the disease.; 0: Only the spot of the drop was free from the disease
Details: 10 μl drop on back of leaf, conc. of active ingredient 200 ppm, disease-free area 5 days after the spraying
Measure: Index

For CNC(=O)/C(=N/OC)c1ccccc1COc1ccc2c(c1)CCC2 [comparative compound (1), reference compound] the molecule record lists Index as 0

---

The following compounds are listed with their measured Preventive rate (%) values.
Tested on: Psecidoperonospora cubensis
Assay: Effect on Cucumber downy mildew (preventive spray test)
Format: in vivo
Details: conc. of active ingredient 100 ppm, 7 days after inoculation
API: value field is a number in %; no unit string.

CNC(=O)C(=NOC)c1ccccc1COc1ccc2c(c1C)CCC2=NOC	100
CON=C(C(=O)OC)c1ccccc1COc1ccc2c(c1)OCCC2=NOC	100
CON=C1COc2cc(OCc3ccccc3/C(=N\OC)C(=O)OC)ccc21	94
CNC(=O)/C(=N/OC)c1ccccc1COc1ccc2c(c1)CCC2 [comparative compound (1), reference compound]	81
CNC(=O)/C(=N/OC)c1ccccc1COc1ccc2c(c1C)OCC2=NOCC=C(C)C	100

For CNC(=O)C(=NOC)c1ccccc1COc1cc2c(cc1C)C(=NOC)CC2 the compound record lists Preventive rate (%) as 100

For CNC(=O)N(OC)c1ccccc1COc1ccc2c(c1)OCC2=NOC the compound record lists Preventive rate (%) as 94

For COC=C(C(=O)OC)c1ccccc1COc1ccc2c(c1C)C(C)CC2=NOC (racemic) the compound record lists Preventive rate (%) as 100

For CON=C(C(=O)OC)c1ccccc1COc1ccc2c(c1C)CCC2=NOC the compound record lists Preventive rate (%) as 100

---

The following compounds are listed with their measured melting point values.

CCON=C1COc2cc(OCc3ccccc3/C(=N\OC)C(=O)NC)ccc21 [a-37]	110 to 113 °C
CNC(=O)/C(=N/OC)c1ccccc1COc1ccc2c(c1)OCC2=NOC [a-5]	143 to 145 °C
CNC(=O)N(OC)c1ccccc1COc1ccc2c(c1)OCC2=NOC [a-8]	109 to 112 °C
CON=C1COc2cc(OCc3ccccc3/C(=N\OC)C(=O)OC)ccc21 [a-4]	108 to 110 °C

For CON=C1COc2cc(OCc3ccccc3N(OC)C(=O)OC)ccc21 [a-7] the compound record lists melting point as 102 to 103 °C
